Taken from patent US20100298141A1.

# Tested on: giant foxtail
# experimental-details: Test A pre-/postemergence greenhouse test
# Format: in vivo, Setaria faberi
# measurement-conditions: Preemergence, 500 g ai/ha; 0 to 100 scale where 0 is no effect and 100 is complete control
# Plant response rating, Foxtail, Giant per entry
Just the number, please.

Cc1cc[n+]([O-])c([S+]([O-])Cc2c(C(F)(F)F)nn(C)c2OCC(F)(F)C(F)(F)F)c1 (stereo not shown) [Compound 90]    100

Q: If you can, please state the reported Plant response rating, Foxtail, Giant value of Cn1nc(C(F)(F)F)c(C[S+]([O-])c2ccc(Cl)c[n+]2[O-])c1OCC(F)(F)F (racemic) [Compound 62] .
A: 100

Q: If you can, please state the reported Plant response rating, Foxtail, Giant value of O=S(=O)(Cc1c(C(F)(F)F)nn(CC(F)(F)F)c1Cl)c1ccc(Cl)c[n+]1[O-] [Compound 50] .
A: 90

Q: If you can, please state the reported Plant response rating, Foxtail, Giant value of Cc1cc([S+]([O-])Cc2c(C(F)(F)F)nn(C)c2OCC(F)(F)F)[n+]([O-])cc1Cl (stereo not shown) [Compound 70] .
A: 100

Q: If you can, please state the reported Plant response rating, Foxtail, Giant value of CCn1nc(C(F)(F)F)c(C[S+]([O-])c2cc(C)cc[n+]2[O-])c1OCC(F)(F)F (racemic) [Compound 66] .
A: 100

Q: If you can, please state the reported Plant response rating, Foxtail, Giant value of Cc1cc[n+]([O-])c([S+]([O-])Cc2c(C(F)(F)F)nn(C)c2OCC(F)F)c1 (stereo not shown) [Compound 86] .
A: 100

Q: If you can, please state the reported Plant response rating, Foxtail, Giant value of Cc1cc[n+]([O-])c(S(=O)(=O)Cc2c(C(F)(F)F)nn(CC(F)(F)F)c2Cl)c1 [Compound 49] .
A: 90

---

# Test system: common ragweed
# experimental-details: Test C pre-/postemergence test
# Type: in vivo, Ambrosia elation
# measurement-conditions: 62 g ai/ha, preemergence; scale 0 (no effect) to 100 (complete control)
Lab note: anything with Ragweed plant response rating at or over 80 counts as label 1; the rest go in label 0.

Here's what some known entries look like.
Cc1cc[n+]([O-])c(S(=O)(=O)C(C)c2c(C(F)(F)F)nn(C)c2Cl)c1 (racemic)    label 1
Cc1cc[n+]([O-])c([S+]([O-])Cc2c(C(F)(F)F)nn(C)c2OC(F)F)c1 (centres unmarked)    label 0
CC(c1c(C(F)(F)F)nn(C)c1OC(F)F)S(=O)(=O)c1cccc[n+]1[O-] (centres unmarked)    label 1
Cn1nc(C(F)(F)F)c(C[S+]([O-])c2cccc[n+]2[O-])c1OC(F)F (centres unmarked)    label 1
Cn1nc(C(F)(F)F)c(C[S+]([O-])c2ccc(Br)c[n+]2[O-])c1OC(F)F (racemic)    label 0
Cc1cc[n+]([O-])c(S(=O)(=O)C(C)c2c(C(F)(F)F)nn(C)c2OC(F)F)c1 (centres unmarked)    label 0
Cn1nc(C(F)(F)F)c(C[S+]([O-])c2cccc[n+]2[O-])c1Cl (centres unmarked)    label 0

Q: Entry `Cn1nc(C(F)(F)F)c(CS(=O)(=O)c2cccc[n+]2[O-])c1OC(F)F` : is its Ragweed plant response rating no less than 80?
A: label 1

---

# Tested on: field bindweed
# experimental-details: Test F preemergence test
# Assay type: in vivo, Convolvulus arvensis
# measurement-conditions: Preemergence; 31 g ai/ha; scale 0 to 100
experimental-readout: Plant response rating, Field Bindweed
Just the number, please.

Cn1nc(C(F)(F)F)c(C[S+]([O-])c2ccc(Cl)c[n+]2[O-])c1OC(F)F (stereo not shown)    50
Cn1nc(OC(F)F)c(CS(=O)(=O)c2cccc[n+]2[O-])c1C(F)(F)F    0
Cn1nc(C(F)(F)F)c(CS(=O)(=O)c2cccc[n+]2[O-])c1OCC(F)(F)F    0
Cc1cc[n+]([O-])c(S(=O)(=O)C(Cl)c2c(C(F)(F)F)nn(C)c2OCC(F)(F)F)c1 (racemic)    0
CC(Oc1c(C[S+]([O-])c2ccc(Cl)c[n+]2[O-])c(C(F)(F)F)nn1C)C(F)(F)F (stereo not shown)    0
CCn1nc(C(F)(F)F)c(CS(=O)(=O)c2cc(C)cc[n+]2[O-])c1OCC(F)(F)F    0
Cc1cc[n+]([O-])c(S(=O)(=O)Cc2c(C(F)(F)F)nn(C)c2OCC(F)(F)F)c1    0
CC(c1c(C(F)(F)F)nn(C)c1OCC(F)(F)F)S(=O)(=O)c1cccc[n+]1[O-] (racemic)    0
Cc1cc[n+]([O-])c([S+]([O-])Cc2c(C(F)(F)F)nn(C)c2OCC(F)(F)F)c1 (racemic)    50

Q: If you can, please state the reported Plant response rating, Field Bindweed value of Cn1nc(C(F)(F)F)c(C[S+]([O-])c2cccc[n+]2[O-])c1OCC(F)(F)F (racemic) .
A: 70

---

# System: Surinam grass
# experimental-details: Test F preemergence test
# Format: in vivo, Brachiaria decumbens
# measurement-conditions: Preemergence; 31 g ai/ha; scale 0 to 100
experimental-readout: Plant response rating, Surinam Grass
Just the number, please.

Cn1nc(OC(F)F)c(CS(=O)(=O)c2cccc[n+]2[O-])c1C(F)(F)F    80
Cc1cc[n+]([O-])c(S(=O)(=O)Cc2c(C(F)(F)F)nn(C)c2OCC(F)(F)F)c1    85
Cn1nc(C(F)(F)F)c(C[S+]([O-])c2ccc(Cl)c[n+]2[O-])c1OCC(F)(F)F (racemic)    95
Cn1nc(C(F)(F)C(F)(F)F)c(C[S+]([O-])c2cccc[n+]2[O-])c1OCC(F)(F)F (stereo not drawn)    30
Cc1cc[n+]([O-])c(S(=O)(=O)C(Cl)c2c(C(F)(F)F)nn(C)c2OCC(F)(F)F)c1 (racemic)    60

Q: If you can, please state the reported Plant response rating, Surinam Grass value of `CCn1nc(C(F)(F)F)c(CS(=O)(=O)c2cc(C)cc[n+]2[O-])c1OCC(F)(F)F` .
A: 90

Q: If you can, please state the reported Plant response rating, Surinam Grass value of `CCc1cc[n+]([O-])c(S(=O)(=O)Cc2c(C(F)(F)F)nn(C)c2OCC(F)(F)F)c1` .
A: 80

Q: If you can, please state the reported Plant response rating, Surinam Grass value of `Cc1cc[n+]([O-])c(S(=O)(=O)Cc2c(C(F)(F)F)nn(C)c2OC(F)F)c1` .
A: 60

Q: If you can, please state the reported Plant response rating, Surinam Grass value of CC(Oc1c(C[S+]([O-])c2cccc[n+]2[O-])c(C(F)(F)F)nn1C)C(F)(F)F (stereo not drawn) .
A: 70

---

# Nutsedge, Yellow plant response rating per entry
# Test system: yellow nutsedge
# experimental-details: Test C pre-/postemergence test
# Type: in vivo, Cyperus esculentus
# measurement-conditions: preemergence, 250 g ai/ha; scale 0 (no effect) to 100 (complete control)

CC(Oc1c(C[S+]([O-])c2cccc[n+]2[O-])c(C(F)(F)F)nn1C)C(F)(F)F (stereo not shown) [Compound 77]    100

Q: Nutsedge, Yellow plant response rating of Cn1nc(C(F)(F)F)c(C[S+]([O-])c2ccc(F)c[n+]2[O-])c1OC(F)F (stereo not shown) [Compound 58] on yellow nutsedge?
A: 98

Q: Nutsedge, Yellow plant response rating of Cn1nc(C(F)(F)C(F)(F)F)c(C[S+]([O-])c2ccc(Cl)c[n+]2[O-])c1OCC(F)(F)F (stereo not shown) [Compound 92] on yellow nutsedge?
A: 100

Q: Nutsedge, Yellow plant response rating of C#CCOc1c(C[S+]([O-])c2cccc[n+]2[O-])c(C(F)(F)F)nn1C (stereo not shown) [Compound 76] on yellow nutsedge?
A: 95

Q: Nutsedge, Yellow plant response rating of Cn1nc(C(F)(F)F)c(C[S+]([O-])c2cc(F)cc[n+]2[O-])c1Cl (racemic) [Compound 42] on yellow nutsedge?
A: 95

Q: Nutsedge, Yellow plant response rating of Cn1nc(C(F)(F)F)c(CS(=O)(=O)c2ccc(Cl)c[n+]2[O-])c1OCC(F)(F)F [Compound 73] on yellow nutsedge?
A: 80

Q: Nutsedge, Yellow plant response rating of CCn1nc(C(F)(F)F)c(C[S+]([O-])c2cccc[n+]2[O-])c1OCC(F)(F)F (racemic) [Compound 65] on yellow nutsedge?
A: 60

Q: Nutsedge, Yellow plant response rating of Cn1nc(C(F)(F)F)c(C[S+]([O-])c2ccc(F)c[n+]2[O-])c1OCC(F)(F)F (stereo not shown) [Compound 67] on yellow nutsedge?
A: 60

Q: Nutsedge, Yellow plant response rating of Cn1nc(C(F)(F)F)c(C(Cl)S(=O)(=O)c2cccc[n+]2[O-])c1OC(F)F (stereo not shown) [Compound 51] on yellow nutsedge?
A: 100
